I'd appreciate it if you could supply IC50 values for the items below.
target-under-test: rh beta tryptase (Homo sapiens, UniProt Q15661)
Sequence (Q15661 31-275): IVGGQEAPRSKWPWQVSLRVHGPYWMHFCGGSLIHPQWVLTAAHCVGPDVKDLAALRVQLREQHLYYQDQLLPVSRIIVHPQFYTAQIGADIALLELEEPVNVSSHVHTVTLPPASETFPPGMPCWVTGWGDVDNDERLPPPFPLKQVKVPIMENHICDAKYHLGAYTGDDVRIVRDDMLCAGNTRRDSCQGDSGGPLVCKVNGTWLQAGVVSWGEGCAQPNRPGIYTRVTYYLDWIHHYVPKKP
assay-comment: tryptase inhibition test (cleavage of N-p-tosyl-Gly-Pro-Lys-para-nitroaniline, p-nitroaniline measured at 405 nm)
settings: Tris HCl buffer pH 7.4 with calcium and heparin; substrate 0.6 mM; 5 min pre-incubation, 5 min incubation, 37° C.
One number for each entry, in nM.

Below: 2 molecules and their reported IC50.
{"columns": ["smiles-string", "target-under-test", "experimental-result"],
 "data": [
  ["N=C(N)c1ccc(OCc2ccc(CNCc3ccc(CNCc4ccc(COc5ccc(C(=N)N)cc5)cc4)cc3)cc2)cc1", "rh beta tryptase (Homo sapiens, UniProt Q15661)", 0.59],
  ["N=C(N)c1ccc(OCc2cccc(CNCCCCCNCc3cccc(COc4ccc(C(=N)N)cc4)c3)c2)cc1", "rh beta tryptase (Homo sapiens, UniProt Q15661)", 1.4]
]}

For every item below, please supply its IC50.
1. N=C(N)c1ccc(OCc2cccc(CN(Cc3ccc(CN(Cc4cccc(COc5ccc(C(=N)N)cc5)c4)C4CC4)cc3)C3CC3)c2)cc1
2. NCc1ccc(OCc2cccc(CNCc3ccc(CNCc4cccc(COc5ccc(CN)cc5)c4)cc3)c2)cc1

A.
[41, 12]

----------
target-under-test: rh beta tryptase (Homo sapiens)
assay-comment: tryptase inhibition test (cleavage of N-p-tosyl-Gly-Pro-Lys-para-nitroaniline, p-nitroaniline measured at 405 nm)
settings: Tris HCl buffer pH 7.4 with calcium and heparin; substrate 0.6 mM; 5 min pre-incubation, 5 min incubation, 37° C.
Please map values of IC50 to classes as shown: low: < 2 nM; mid: ≥ 2 nM and < 10 nM; high: ≥ 10 nM

{"columns": ["compound", "label-value"],
 "data": [
  ["N=C(N)c1ccc(OCc2cccc(CNCCCCCCNCc3cccc(COc4ccc(C(=N)N)cc4)c3)c2)cc1 [Example 25]", "low"]
]}

Q. Note: place this compound into its band. Item: N=C(N)c1ccc(OCc2cccc(CNCc3cccc(CNCc4cccc(COc5ccc(C(=N)N)cc5)c4)c3)c2)cc1 [Example 28]
A. mid

Q. Note: place this compound into its band. Item: N=C(N)c1ccc(OCc2cccc(CNCCOCCNCc3cccc(COc4ccc(C(=N)N)cc4)c3)c2)cc1 [Example 39]
A. high

Q. Note: place this compound into its band. Item: NCc1ccc(OCc2cccc(CN3CCC(C4CCN(Cc5cccc(COc6ccc(CN)cc6)c5)CC4)CC3)c2)cc1 [Example 68]
A. mid

Q. Note: place this compound into its band. Item: NCc1ccc(OCc2cccc(CNCc3cccc(CNCc4cccc(COc5ccc(CN)cc5)c4)c3)c2)cc1 [Example 15]
A. high

----------
I'd appreciate it if you could supply pIC50 values for the items below.
target-under-test: rh beta tryptase (Homo sapiens)
assay-comment: tryptase inhibition test (cleavage of N-p-tosyl-Gly-Pro-Lys-para-nitroaniline, p-nitroaniline measured at 405 nm)
settings: Tris HCl buffer pH 7.4 with calcium and heparin; substrate 0.6 mM; 5 min pre-incubation, 5 min incubation, 37° C.
Numbers only, as −log10 of the molar value.

Below: 3 molecules and their reported pIC50.
{"columns": ["molecule", "pIC50"],
 "data": [
  ["CC1(NCc2cccc(COc3ccc(CN)cc3)c2)CCC(C(C)(C)NCc2cccc(COc3ccc(CN)cc3)c2)CC1 (centres unmarked)", 7.97],
  ["CC(C)(CCCCC(C)(C)NCc1cccc(COc2ccc(C(=N)N)cc2)c1)NCc1cccc(COc2ccc(C(=N)N)cc2)c1", 8.60],
  ["N=C(N)c1ccc(OCc2cccc(CNCCCCC(NCc3cccc(COc4ccc(C(=N)N)cc4)c3)C(=O)O)c2)cc1 (centres unmarked)", 7.49]
]}

For every item below, please supply its pIC50.
1. CC(C)(CCC(C)(C)NCc1cccc(COc2ccc(C(=N)N)cc2)c1)NCc1cccc(COc2ccc(C(=N)N)cc2)c1
2. N=C(N)c1ccc(OCc2cccc(CNCC3CCC(CNCc4cccc(COc5ccc(C(=N)N)cc5)c4)CC3)c2)cc1 (centres unmarked)
3. CN(CCCCCCN(C)Cc1cccc(COc2ccc(C(=N)N)cc2)c1)Cc1cccc(COc2ccc(C(=N)N)cc2)c1
4. CC1(NCc2cccc(COc3ccc(C(=N)N)cc3)c2)CCC(C(C)(C)NCc2cccc(COc3ccc(C(=N)N)cc3)c2)CC1 (centres unmarked)
5. NCc1ccc(OCc2cccc(CNCCc3cccc(NCc4cccc(COc5ccc(CN)cc5)c4)c3)c2)cc1
6. N=C(N)c1ccc(OCc2cccc(CN3CCC(C4CCN(Cc5cccc(COc6ccc(C(=N)N)cc6)c5)CC4)CC3)c2)cc1

A.
8.77
9.10
8.51
8.30
7.46
9.10

----------
target-under-test: rh beta tryptase (Homo sapiens)
assay-comment: tryptase inhibition test (cleavage of N-p-tosyl-Gly-Pro-Lys-para-nitroaniline, p-nitroaniline measured at 405 nm)
settings: Tris HCl buffer pH 7.4 with calcium and heparin; substrate 0.6 mM; 5 min pre-incubation, 5 min incubation, 37° C.
readout-label: pIC50
Answers are plain numbers, as −log10 of the molar value.

Below: 3 molecules and their reported pIC50.
{"columns": ["molecule", "target-under-test", "experimental-result"],
 "data": [
  ["NCCc1ccc(OCc2cccc(CN3CCC(C4CCN(Cc5cccc(COc6ccc(CCN)cc6)c5)CC4)CC3)c2)cc1", "rh beta tryptase (Homo sapiens)", 7.51],
  ["CN(Cc1ccc(CN(C)Cc2cccc(COc3ccc(CCN)cc3)c2)cc1)Cc1cccc(COc2ccc(CCN)cc2)c1", "rh beta tryptase (Homo sapiens)", 7.50],
  ["N=C(N)c1ccc(OCc2cccc(CNCc3ccc(CNCc4cccc(COc5ccc(C(=N)N)cc5)c4)cc3)c2)cc1", "rh beta tryptase (Homo sapiens)", 8.77]
]}

For every item below, please supply its pIC50.
1. N=C(N)c1ccc(OCc2ccc(CN3CCC(C4CCN(Cc5ccc(COc6ccc(C(=N)N)cc6)cc5)CC4)CC3)cc2)cc1
2. N=C(N)c1ccc(OCc2cccc(CNCCCCCCCNCc3cccc(COc4ccc(C(=N)N)cc4)c3)c2)cc1
3. NCc1ccc(OCc2cccc(CNCCCCCNCc3cccc(COc4ccc(CN)cc4)c3)c2)cc1
4. N=C(N)c1ccc(OCc2ccc(CNCCCCCCNCc3ccc(COc4ccc(C(=N)N)cc4)cc3)cc2)cc1
5. N=C(N)c1ccc(OCc2cccc(COCc3ccc(COCc4cccc(COc5ccc(C(=N)N)cc5)c4)cc3)c2)cc1

A.
1: 8.96; 2: 8.96; 3: 8.37; 4: 9.13; 5: 7.72

For every item below, please supply its pIC50.
1. CCCCN(CCCCCCN(CCCC)Cc1cccc(COc2ccc(C(=N)N)cc2)c1)Cc1cccc(COc2ccc(C(=N)N)cc2)c1
2. CN(CCCCCCN(C)Cc1cccc(COc2ccc(CN)cc2)c1)Cc1cccc(COc2ccc(CN)cc2)c1
3. NCc1ccc(OCc2cccc(CNC3CCC(CC4CCC(NCc5cccc(COc6ccc(CN)cc6)c5)CC4)CC3)c2)cc1 (centres unmarked)

A.
8.17
7.89
8.00

For every item below, please supply its pIC50.
1. NCc1ccc(OCc2cccc(CNCC3CCCC(CNCc4cccc(COc5ccc(CN)cc5)c4)C3)c2)cc1 (centres unmarked)
2. NCc1ccc(OCc2cccc(CNCC3CCC(CNCc4cccc(COc5ccc(CN)cc5)c4)CC3)c2)cc1 (centres unmarked)
3. CC(C)(CCC(C)(C)NCc1cccc(COc2ccc(CN)cc2)c1)NCc1cccc(COc2ccc(CN)cc2)c1

A.
[8.15, 8.40, 7.89]

Values were extracted from patent US6780863B1.
